molecular target: Mitogen-activated protein kinase 10 (Homo sapiens); assay: Inhibition of JNK3 by HRTF
Sequence (P53779 whole entry): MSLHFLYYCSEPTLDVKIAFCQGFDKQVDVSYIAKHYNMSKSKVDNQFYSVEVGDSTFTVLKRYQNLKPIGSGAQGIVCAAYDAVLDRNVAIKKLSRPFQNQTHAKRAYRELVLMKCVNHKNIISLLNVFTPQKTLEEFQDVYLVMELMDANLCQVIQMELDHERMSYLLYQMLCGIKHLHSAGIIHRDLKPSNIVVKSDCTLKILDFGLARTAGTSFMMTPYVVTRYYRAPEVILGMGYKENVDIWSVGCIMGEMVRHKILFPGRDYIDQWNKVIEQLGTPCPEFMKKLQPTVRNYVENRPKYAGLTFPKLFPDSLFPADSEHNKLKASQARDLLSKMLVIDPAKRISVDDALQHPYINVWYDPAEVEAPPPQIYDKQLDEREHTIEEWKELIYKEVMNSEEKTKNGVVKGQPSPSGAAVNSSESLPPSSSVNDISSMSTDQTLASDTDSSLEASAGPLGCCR
pIC50: −log10 of the molar value.
OBSERVABLE: pIC50

Known pIC50 results, listed for orientation:
# COMPOUND, OBSERVABLE, READING
measured = [
    ("Cc1ccc(-c2cccc3cnc(NC4CCC(O)CC4)nc23)cn1 (centres undefined)", "pIC50", 7.30),
    ("Cc1ccc(-c2cccc3cnc(Nc4ccc(-n5cnc(N6CCOCC6)n5)cc4)nc23)cn1", "pIC50", 7.52),
    ("c1cc(-c2nccs2)c2nc(Nc3ccc(-n4cnc(N5CCOCC5)n4)cc3)ncc2c1", "pIC50", 8.15),
]

(a) Cc1ccc(-c2cccc3cnc(N[C@H]4CC[C@@H](C(=O)N5CCCC5)CC4)nc23)cn1
(b) COc1ccc(-c2cccc3cnc(Nc4ccc(-n5cnc(-c6ccccn6)n5)cc4)nc23)cc1F
(c) Cn1cc(-c2ccc3cnc(Nc4ccc(-n5cnc(N6CCOCC6)n5)cc4)nc3c2-c2cnn(C)c2)cn1
(d) c1cc(-n2cnc(N3CCOCC3)n2)ccc1Nc1ncc2ccc(-c3cnoc3)cc2n1
Put the items in order so that reported pIC50 rises from first to last. Answer by writing out the labels in the requested order. d, b, a, c
(d: 6.15, b: 7.05, a: 7.52, c: 8.05)
